Biological target: BB7 (RNA-dependent RNA polymerase hepatitis C virus protein sequence derived from HCV replicon) (Hepatitis C virus genotype 1b)
What log10 IC50 was measured for each of the following?
Values reflect log10 of reported IC50 (nM).

Cc1cc(F)c(C#N)c2c3c([nH]c12)C(CC(=O)O)(C1CCC1)OCC3 (stereo not drawn)	2.95
CCCC1(CC(=O)O)OCCc2c1[nH]c1c(C#N)ccc(C(F)(F)F)c21 (stereo not drawn)	3.23
Cc1ccc(C#N)c2c3c([nH]c12)C(CCC(F)(F)F)(CC(=O)O)OCC3 (stereo not drawn)	3.30
Cc1ccc(Cl)c2c3c([nH]c12)C(CC(=O)O)(C1CCC1)OCC3 (stereo not drawn)	3.20
CCCC1(CC(=O)O)OCCc2c1[nH]c1c(CC)ccc(C#N)c21 (stereo not drawn)	3.49

Fill in log10 IC50 for each of the 3 compounds listed.
1. Cc1ccc(C#N)c2c3c([nH]c12)C(CC(=O)O)(C1CCCC1)OCC3 (stereo not drawn)
2. CC[C@H](C)[C@@]1(CC(=O)O)OCCc2c1[nH]c1c(C)cc(F)c(C#N)c21
3. CCCC1(CC(=O)O)OCCc2c1[nH]c1cc(Cl)c(Cl)cc21 (stereo not drawn)

1. 3.81
2. 1.90
3. 4.26

###

What pIC50 was measured for each of the following?
Target: NS5B from the BK strain (genotype 1b) (Hepatitis C virus genotype 1b, UniProt P26663)
Construct: NS5B from the BK strain (genotype 1b) is expressed in E. coli as a protein in which the 21 C-terminal amino acids are replaced; made in house; host or cells: E. coli
Sequence (P26663 2420-2989): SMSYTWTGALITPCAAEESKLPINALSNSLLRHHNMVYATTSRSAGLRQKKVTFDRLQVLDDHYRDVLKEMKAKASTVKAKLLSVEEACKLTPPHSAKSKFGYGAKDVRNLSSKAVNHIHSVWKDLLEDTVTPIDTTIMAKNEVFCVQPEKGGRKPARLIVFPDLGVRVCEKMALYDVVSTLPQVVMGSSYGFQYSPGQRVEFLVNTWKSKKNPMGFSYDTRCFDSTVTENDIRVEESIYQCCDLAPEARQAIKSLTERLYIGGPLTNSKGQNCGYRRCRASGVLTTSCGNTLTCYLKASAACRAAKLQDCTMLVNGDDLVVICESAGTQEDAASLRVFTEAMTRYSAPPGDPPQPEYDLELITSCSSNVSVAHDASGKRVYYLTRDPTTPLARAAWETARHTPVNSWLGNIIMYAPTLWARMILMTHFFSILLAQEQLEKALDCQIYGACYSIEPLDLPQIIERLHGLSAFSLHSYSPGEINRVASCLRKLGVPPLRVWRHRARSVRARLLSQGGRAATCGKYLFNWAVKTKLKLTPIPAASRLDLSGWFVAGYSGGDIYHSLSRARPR
Assay: Hepatitis C polymerase inhibition, NS5B BK strain, 33P-GTP filter assay
Assay type: biochemical
Details: Table 1A; NS5B BK strain; read-out: HCV pol BK IC50
pIC50: −log10 of the molar value.

O=C(O)CC1(c2ccc(C(=O)O)cc2)OCCc2c1[nH]c1ccc(Cl)c(Cl)c21 (stereo not shown) [Example 113]	6.59
N#Cc1cccc2[nH]c3c(c12)CCOC3(CC(=O)O)c1ccccc1 (stereo not shown) [Example 62]	< 4.70
CCCC1(CC(=O)O)OCCc2c1[nH]c1cccc(-c3ccc(C(F)(F)F)cc3)c21 (stereo not shown) [Example 36]	< 4.70

Consider now this further molecule.
Summary for this molecule, N#Cc1cccc2[nH]c3c(c12)CCOC3(CC(=O)O)c1ccc([N+](=O)[O-])cc1 (stereo not shown) [Example 64] : pIC50 is < 4.70

###

Molecular target: NS5B from the BK strain (genotype 1b) (Hepatitis C virus genotype 1b, UniProt P26663)
Construct: NS5B from the BK strain (genotype 1b) is expressed in E. coli as a protein in which the 21 C-terminal amino acids are replaced; made in house; host or cells: E. coli
Experiment: Hepatitis C polymerase inhibition, NS5B BK strain, 33P-GTP filter assay
Type: biochemical
Conditions: Table 1A; 20 μM compound; read-out: HCV pol % inh at 20 μM
Classification field: True = inhibition at 20 µM at or over 60%; False = inhibition at 20 µM under 60%.

Reference set (8 entries):
CCCC1(CC(=O)O)OCCc2c1[nH]c1c(C)cc(F)c(Br)c21 (stereo not drawn) [Example 201]	True
CCC1(CC(=O)O)OCCc2c1[nH]c1cccc(Br)c21 (stereo not drawn) [Example 21]	False
N#Cc1cccc2[nH]c3c(c12)CCOC3(CC(=O)O)c1ccoc1 (stereo not drawn) [Example 61]	False
CC(C)C1(CC(=O)O)OCCc2c1[nH]c1c(F)ccc(F)c21 (stereo not drawn) [Example 125]	True
Cc1ccc(F)c2c3c([nH]c12)C(CC(=O)O)(c1ccccc1)OCC3 (stereo not drawn) [Example 146]	False
O=C(O)CC1(c2ccc(C(=O)O)cc2)OCCc2c1[nH]c1c(Cl)cc(Cl)c(Cl)c21 (stereo not drawn) [Example 161]	True
CCCC1(CC(=O)O)OCCc2c1[nH]c1cccc(-c3ccccc3C)c21 (stereo not drawn) [Example 42]	False
CC(C)C1(CC(=O)O)OCCc2c1[nH]c1c(F)cc(F)c(C#N)c21 (stereo not drawn) [Example 198]	True

Moving on to the next compound.
Check if inhibition at 20 µM >= 60% (inclusive). Item: CC(C)C1(CC(=O)O)OCCc2c1[nH]c1c(Cl)cccc21 (stereo not drawn) [Example 75]
False

###

What pIC50 was measured for each of the following?
Target: BB7 (RNA-dependent RNA polymerase hepatitis C virus protein sequence derived from HCV replicon) (Hepatitis C virus genotype 1b, UniProt Q9WMX2)
Sequence (Q9WMX2 2420-3010): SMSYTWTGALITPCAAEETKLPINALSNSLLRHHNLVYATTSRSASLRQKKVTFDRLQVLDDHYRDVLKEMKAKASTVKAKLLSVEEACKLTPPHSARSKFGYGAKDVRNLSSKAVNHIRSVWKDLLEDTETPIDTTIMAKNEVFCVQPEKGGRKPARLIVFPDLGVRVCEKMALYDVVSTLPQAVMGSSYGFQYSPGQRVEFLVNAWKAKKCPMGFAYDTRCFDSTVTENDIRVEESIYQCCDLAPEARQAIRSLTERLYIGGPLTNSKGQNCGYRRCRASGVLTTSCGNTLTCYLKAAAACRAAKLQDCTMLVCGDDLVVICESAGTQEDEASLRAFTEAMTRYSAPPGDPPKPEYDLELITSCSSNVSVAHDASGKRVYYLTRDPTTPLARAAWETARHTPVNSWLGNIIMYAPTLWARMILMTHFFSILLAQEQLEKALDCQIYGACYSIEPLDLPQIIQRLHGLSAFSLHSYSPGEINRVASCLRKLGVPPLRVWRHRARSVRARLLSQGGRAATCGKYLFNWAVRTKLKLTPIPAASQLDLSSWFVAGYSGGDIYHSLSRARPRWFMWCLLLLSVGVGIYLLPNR
One number for each entry, as −log10 of the molar value.

N#Cc1ccc(F)c2[nH]c3c(c12)CCOC3(CCC(F)(F)F)CC(=O)O (centres unmarked) [Example 301]	4.95
CCOCC1(CC(=O)O)OCCc2c1[nH]c1c(Cl)ccc(C(F)(F)F)c21 (centres unmarked) [Example 266]	4.77

Fill in pIC50 for each of the 6 molecules listed.
1. CCCC1(CC(=O)O)OCCc2c1[nH]c1c(Cl)ccc(C)c21 (centres unmarked) [Example 262]
2. O=C(O)CC1(CCC(F)(F)F)OCCc2c1[nH]c1c(Cl)ccc(C(F)(F)F)c21 (centres unmarked) [Example 263]
3. CCCC1(CC(=O)O)OCCc2c1[nH]c1c(F)ccc(C(F)(F)F)c21 (centres unmarked) [Example 268]
4. CCCC1(C(=O)O)OCCc2c1[nH]c1c(F)ccc(C(F)(F)F)c21 (centres unmarked) [Example 332]
5. O=C(O)CC1(C2CC2)OCCc2c1[nH]c1c(Cl)ccc(Cl)c21 (centres unmarked) [Example 252]
6. CCC[C@]1(CC(=O)O)OCCc2c1[nH]c1c(Cl)ccc(C#N)c21 [Example 322]

1: 5.08; 2: 5.49; 3: 5.21; 4: 4.85; 5: 4.72; 6: 6.80

Fill in pIC50 for each of the 4 molecules listed.
1. CCCC1(C(=O)O)OCCc2c1[nH]c1c(Cl)ccc(Cl)c21 (centres unmarked) [Example 329]
2. CC[C@@H](C)[C@@]1(C(=O)O)OCCc2c1[nH]c1c(C)ccc(C#N)c21 (racemic) [Example 336]
3. O=C(O)CC1(CC2CC2)OCCc2c1[nH]c1c(Cl)ccc(Cl)c21 (centres unmarked) [Example 257]
4. CCCC1(C(=O)O)OCCc2c1[nH]c1c(C)ccc(C(F)(F)F)c21 (centres unmarked) [Example 333]

1: 5.82; 2: 5.06; 3: 5.54; 4: 5.12

###

Target: NS5B from the BK strain (genotype 1b) (Hepatitis C virus genotype 1b, UniProt P26663)
Construct: NS5B from the BK strain (genotype 1b) is expressed in E. coli as a protein in which the 21 C-terminal amino acids are replaced; made in house; host or cells: E. coli
Experiment: Hepatitis C polymerase inhibition, NS5B BK strain, 33P-GTP filter assay
Format: biochemical
Details: Table 1A; NS5B BK strain; read-out: HCV pol BK IC50
MEASURED METRIC: pIC50
Numbers only, as −log10 of the molar value.

Fill in pIC50 for each of the 8 compounds listed.
1. CCCC1(CC(=O)O)OCCc2c1[nH]c1c(Cl)cc(C)c(Cl)c21 (stereo not drawn) [Example 216]
2. CCC1(CC(=O)O)OCCc2c1[nH]c1c(C)cc(F)c(C#N)c21 (stereo not drawn) [Example 206]
3. CCCCC1(CC(=O)O)OCCc2c1[nH]c1cccc(Cl)c21 (stereo not drawn) [Example 69]
4. CCCCC1(CC(=O)O)OCCc2c1[nH]c1c(Cl)cc(C)c(C#N)c21 (stereo not drawn) [Example 185]
5. CC(C)C1(CC(=O)O)OCCc2c1[nH]c1c(Br)ccc(Br)c21 (stereo not drawn) [Example 212]
6. CCCCC1(CC(=O)O)OCCc2c1[nH]c1c(F)cc(C)c(Br)c21 (stereo not drawn) [Example 167]
7. Cc1cc(F)c2[nH]c3c(c2c1Br)CCOC3(CC(=O)O)C(C)C (stereo not drawn) [Example 166]
8. CCCC1(CC(=O)O)OCCc2c1[nH]c1c(C)ccc(C#N)c21 (stereo not drawn) [Example 1]

1. 6.59
2. 5.96
3. 5.26
4. 5.40
5. 6.40
6. 5.52
7. 5.43
8. 6.30

Fill in pIC50 for each of the 2 compounds listed.
1. Cc1cc(F)c(Br)c2c3c([nH]c12)C(CC(=O)O)(C(C)C)OCC3 (stereo not drawn) [Example 202]
2. O=C(O)CC1(c2ccoc2)OCCc2c1[nH]c1c(Cl)ccc(C(F)(F)F)c21 (stereo not drawn) [Example 136]

1. 5.54
2. 5.37

###

Target: UniProtKB Q9WMX2
MEASURED METRIC: pIC50
One number for each entry, as −log10 of the molar value.

A selection of reference data follows.
CCCC1(C(=O)O)OCCc2c1[nH]c1ccc(Cl)c(Cl)c21 (stereo not drawn)	5.41
CCCC1(C(=O)O)OCCc2c1[nH]c1c(C)ccc(Cl)c21 (stereo not drawn)	5.08
O=C(O)CC1(C2CCC2)OCCc2c1[nH]c1ccc(Cl)c(Cl)c21 (stereo not drawn)	5.27
CCC(C)C1(CC(=O)O)OCCc2c1[nH]c1c(C)ccc(C#N)c21 (racemic)	6.30
O=C(O)CC1(C2CCCC2)OCCc2c1[nH]c1c(Cl)ccc(Cl)c21 (stereo not drawn)	5.24
CCCC1(CC(=O)O)OCCc2c1[nH]c1c(C)c(C(=O)O)cc(C#N)c21 (stereo not drawn)	6.09

Fill in pIC50 for each of the 2 compounds listed.
1. CCCC1(CC(=O)O)OCCc2c1[nH]c1c(C)ccc(Cl)c21 (stereo not drawn)
2. Cc1ccc(C(F)(F)F)c2c3c([nH]c12)C(CC(=O)O)(C1CCC1)OCC3 (stereo not drawn)

5.92
5.46
